Cited source: patent US8067600B2

assay: Cytotoxicity in SQ-20B cells (colony formation); conditions: human, SQ-20B squamous carcinoma cells
Kindly supply the reported IC50 at 24 h values for the records listed here.
Please give a number only; it is taken to be in µM.

Prompt line: Which IC50 at 24 h is listed for CN(C)c1ccc(CNC(=O)NCCCCCCCC(=O)NO)cc1 [Compound 6] ?
Response line: 50

Prompt line: Which IC50 at 24 h is listed for CN(C)c1ccc(CNC(=O)NCCCCCCC(=O)NO)cc1 [Compound 5] ?
Response line: 50

Prompt line: Which IC50 at 24 h is listed for O=C(CCCCCNC(=O)NC12CC3CC(CC(C3)C1)C2)NO [Compound 8] ?
Response line: 50

Prompt line: Which IC50 at 24 h is listed for O=C(CS)NCCCCCCNC(=O)Nc1ccccc1 [Compound 10] ?
Response line: 50

Prompt line: Which IC50 at 24 h is listed for CC(/C=C/C(=O)NO)=C\[C@@H](C)C(=O)c1ccc(N(C)C)cc1 [TSA, reference compound] ?
Response line: 0.2

Prompt line: Which IC50 at 24 h is listed for CN(C)c1ccc(NC(=O)NCCCCCCC(=O)NO)cc1 [Compound 7] ?
Response line: 10

---

System: HDAC
Assay: In vitro HDAC inhibitory activity using fluor-Lys as the substrate (BIOMOL)
Assay type: biochemical
Conditions: fluor-Lys substrate (BIOMOL); read-out: 50% HDAC Activity Inhibition
Procedure: The in vitro HDAC inhibitory activity of these compounds was determined by using fluor-Lys as the substrate (BIOMOL).
Response field class: enum, chosen by comparing IC50 against bottom range = under 400 nM, center range = from 400 nM up to 1000 nM, top range = 1000 nM and over

Prompt line: Note: place this compound into its band. Item: O=C(CS)NCCCNC(=O)c1ccc(-c2ccccc2)cc1
Response line: center range

Prompt line: Note: place this compound into its band. Item: O=C(CS)NCCCCCCNC(=O)c1ccccc1
Response line: center range

Prompt line: Note: place this compound into its band. Item: CN(C)c1ccc(C(=O)NCCCCCCNC(=O)CS)cc1
Response line: center range

Prompt line: Note: place this compound into its band. Item: O=C(CS)NCCCCCNC(=O)c1ccc(-c2ccccc2)cc1
Response line: center range

Prompt line: Note: place this compound into its band. Item: CN(C)c1ccc(C(=O)NCc2ccc(CNC(=O)CS)cc2)cc1
Response line: bottom range

Prompt line: Note: place this compound into its band. Item: CN(C)c1ccc(C(=O)NCCCNC(=O)CS)cc1
Response line: center range

Prompt line: Note: place this compound into its band. Item: O=C(CS)NCCCCCCNC(=O)CS
Response line: top range

Prompt line: Note: place this compound into its band. Item: O=C(CS)NCCCCCNC(=O)c1cnc2ccccc2c1
Response line: bottom range

Prompt line: Note: place this compound into its band. Item: O=C(CS)NCCCCCNC(=O)c1ccccc1
Response line: top range

Prompt line: Note: place this compound into its band. Item: O=C(CS)NCCCCNC(=O)c1ccc(-c2ccccc2)cc1
Response line: top range

Prompt line: Note: place this compound into its band. Item: CN(C)c1ccc(C(=O)NCCCCNC(=O)CS)cc1
Response line: top range
